B1: Hairpin Ribozyme (parent)
chain: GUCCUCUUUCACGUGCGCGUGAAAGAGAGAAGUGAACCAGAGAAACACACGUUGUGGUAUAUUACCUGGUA

Variants of: B1
Assay method text: self-cleavage, relative activity (ratio to wild type); higher = more cleavage; co-transcriptional
Output Condition met for self-cleavage not less than 0.3; output Condition not met otherwise.

Use the examples below as a reference point.
# Variant id, Label
rows = [
    ("C18U G40A", "Condition not met"),
    ("A44C U70G", "Condition not met"),
    ("U33C U70C", "Condition not met"),
]

## Task Is self-cleavage at least 0.3? Consider U9A G27C
## Result Condition not met

## Task Is self-cleavage at least 0.3? Consider A11U A44C
## Result Condition not met

## Task Is self-cleavage at least 0.3? Consider G56C G68C
## Result Condition not met

## Task Is self-cleavage at least 0.3? Consider U2A G69A
## Result Condition not met
